Where do these numbers come from? They come from paper PMC3961306.

- Measured target: panel of more than 300 wild-type and mutant kinases (313 kinase panel) (Homo sapiens, UniProt P06493)
- Experiment notes: Kinase profiling in a biochemical assay panel (mobility shift assays and ELISA), %-inhibition at 1 μM; selectivity entropy
- Condition set: kinase CDC2/CycB1; 1 μM compound
Measure: %-inhibition, CDC2/CycB1 (%)
One number for each entry, in %.

Input line: What does the data say about its %-inhibition, CDC2/CycB1? Entry: CO[C@H]1C[C@@H]2CC[C@@H](C)[C@@](O)(O2)C(=O)C(=O)N2CCCC[C@H]2C(=O)O[C@H]([C@H](C)C[C@@H]2CC[C@@H](OCCO)[C@H](OC)C2)CC(=O)[C@H](C)/C=C(\C)[C@@H](O)[C@@H](OC)C(=O)[C@H](C)C[C@H](C)/C=C/C=C/C=C/1C
Output line: -19

Input line: Can you check Cc1ccc(C(=O)Nc2ccc(CN3CCN(C)CC3)c(C(F)(F)F)c2)cc1C#Cc1cnc2cccnn12 next?
Output line: 33

Need %-inhibition, CDC2/CycB1 for each of these compounds.
1. COc1cc2c(Nc3ccc(Br)cc3F)ncnc2cc1OCC1CCN(C)CC1
2. Cc1ccc(Nc2nccc(N(C)c3ccc4c(C)n(C)nc4c3)n2)cc1S(N)(=O)=O
3. Cc1cn(-c2cc(NC(=O)c3ccc(C)c(Nc4nccc(-c5cccnc5)n4)c3)cc(C(F)(F)F)c2)cn1

Output line:
1: -0.952; 2: 3; 3: 1

Input line: Fill in the blank: the reported %-inhibition, CDC2/CycB1 of Cc1nc(Nc2ncc(C(=O)Nc3c(C)cccc3Cl)s2)cc(N2CCN(CCO)CC2)n1 is ____.
Output line: 4.44

---

- System: forty-four human cancer cell lines
- Experiment notes: Cell proliferation assay (ATPlite, 72 hours) in the 44 cell line Oncolines panel
- Format: cell-based
- Condition set: Homo sapiens, MG-63, read-out: cell panel IC50, MG-63
Measure: pIC50
Answers are plain numbers, as −log10 of the molar value.

Input line: Could you tell me which pIC50 is on file for CCN(CC)CCNC(=O)c1c(C)[nH]c(/C=C2\C(=O)Nc3ccc(F)cc32)c1C ?
Output line: 5.47

Input line: One more compound: C[C@@H](Oc1cc(-c2cnn(C3CCNCC3)c2)cnc1N)c1c(Cl)ccc(F)c1Cl
Output line: 5.76

Input line: How about this compound: CS(=O)(=O)CCNCc1ccc(-c2ccc3ncnc(Nc4ccc(OCc5cccc(F)c5)c(Cl)c4)c3c2)o1
Output line: 4.91

Your task in this section: give pIC50 for each listed record.
1. CNC(=O)c1cc(Oc2ccc(NC(=O)Nc3ccc(Cl)c(C(F)(F)F)c3)cc2)ccn1
2. CN(C)C/C=C/C(=O)Nc1cc2c(Nc3ccc(F)c(Cl)c3)ncnc2cc1O[C@H]1CCOC1
3. COc1cc2nccc(Oc3ccc(NC(=O)C4(C(=O)Nc5ccc(F)cc5)CC4)cc3)c2cc1OC [cabozantinib]
4. Cc1ccc(C(=O)Nc2ccc(CN3CCN(C)CC3)c(C(F)(F)F)c2)cc1C#Cc1cnc2cccnn12

Output line:
[4.56, 5.55, 4.81, 5.61]

---

I'd appreciate it if you could supply %-inhibition of EGFR(d746-750) values for the items below.
- System: panel of more than 300 wild-type and mutant kinases (313 kinase panel)
- Experiment notes: Kinase profiling in a biochemical assay panel (mobility shift assays and ELISA), %-inhibition at 1 μM; selectivity entropy
- Condition set: kinase EGFR(d746-750); compound at 1 μM
Give bare numbers, in %.

Use the examples below as a reference point.
Input line: Data request, read-out %-inhibition of EGFR(d746-750), for CNC(=O)c1cc(Oc2ccc(NC(=O)Nc3ccc(Cl)c(C(F)(F)F)c3)c(F)c2)ccn1
Output line: 12

Input line: Request: CC(=O)Nc1cccc(-n2c(=O)n(C3CC3)c(=O)c3c(Nc4ccc(I)cc4F)n(C)c(=O)c(C)c32)c1
Output line: -2.58

Input line: Consider next the compound CC(C)(C)c1nc(-c2cccc(NS(=O)(=O)c3c(F)cccc3F)c2F)c(-c2ccnc(N)n2)s1 in the same way.
Output line: -1.84

Now look at this one.
Input line: Return reported %-inhibition of EGFR(d746-750); argument: CCCS(=O)(=O)Nc1ccc(F)c(C(=O)c2c[nH]c3ncc(-c4ccc(Cl)cc4)cc23)c1F
Output line: 2.81
